Sourced from PubChem BioAssay AID652154

experiment: PAX8 transcriptional activity inhibition in RMG-I – RMG-I cells, luciferase, single concentration, primary screen (AID 652154); conditions: RMG-I TPO-luciferase reporter, SteadyGlo, 24 h; at 12.6 µM;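 also: luciferase light reporting Pax8 driven TPO promoter activity; plate controls were median of neutral control wells for no effect and mitoxantrone controls for full effect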
Hit rate of the full screen: of about 360,000 compounds, about 4,200 (1.2%) were called active.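 The calls were made as follows: active = mean replicate inhibition at least 60% with every replicate also reaching 60%; inconclusive = only one of the two criteria is met; inactive = mean below 60% and not all replicates reaching 60%.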 This excerpt belongs to a sample that is enriched for actives.
Select the correct class. Options are yes (1) (active), no (0) (inactive) and nothing else.

[
  {
    "MOLECULE": "CC[C@]1(O)C[C@@H]2CN(CCc3c([nH]c4ccccc34)[C@@](C(=O)OC)(c3cc4c(cc3OC)N(C)[C@H]3[C@@](O)(C(=O)OC)[C@H](OC(C)=O)[C@]5(CC)C=CCN6CC[C@]43[C@@H]65)C2)C1",
    "ANSWER_LABEL": "yes (1)"
  }
]

### Prompt Outcome? CC[C@]1(O)CC2CN(CCc3c([nH]c4ccccc34)[C@@](C(=O)OC)(c3cc4c(cc3OC)N(C=O)[C@H]3[C@@](O)(C(=O)OC)[C@H](OC(C)=O)[C@]5(CC)C=CCN6CC[C@]43[C@@H]65)C2)C1 (stereo partly drawn)
### Response yes (1)

### Prompt // query: CC(=O)N1[C@H](CNC(=O)CN(C)C)[C@H](c2ccc(C3=CCCC3)cc2)[C@@H]1CO
### Response no (0)

---

test: PAX8 transcriptional activity inhibition in RMG-I – RMG-I cells, luciferase, single concentration, primary screen (AID 652154); conditions: RMG-I TPO-luciferase reporter, SteadyGlo, 24 h; at 12.6 µM; hits give high values;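 also: luciferase light reporting Pax8 driven TPO promoter activity; plate controls were median of neutral control wells for no effect and mitoxantrone controls for full effect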
Among all 360,000 compounds or so, about 4,200 (1.2%) were called active. Only a selection was taken, and actives are over-represented in it overall.
MEASURED_PARAMETER: inhibition (%)
Form entry: value (%) — number only.

[
  {
    "MOLECULE": "CCCC#Cc1ccc([C@H]2[C@H](CO)N3CCCCN(S(=O)(=O)CC)C[C@@H]23)cc1",
    "MEASURED_PARAMETER": "inhibition",
    "VALUE": -26.1
  },
  {
    "MOLECULE": "C[C@H](CO)N1C[C@H](C)[C@@H](CN(C)C)OCCCC[C@H](C)Oc2ccc(NC(=O)C3CCCCC3)cc2C1=O",
    "MEASURED_PARAMETER": "inhibition",
    "VALUE": -11.4
  },
  {
    "MOLECULE": "C[C@@H]1CN([C@H](C)CO)S(=O)(=O)c2ccc(C#CC3CCCC3)cc2O[C@@H]1CN(C)C(=O)Cc1ccncc1",
    "MEASURED_PARAMETER": "inhibition",
    "VALUE": 90.6
  },
  {
    "MOLECULE": "COc1ccc(S(=O)(=O)N2CCCCN3[C@H](CO)[C@@H](c4ccc(C#CC(C)C)cc4)[C@H]3C2)cc1",
    "MEASURED_PARAMETER": "inhibition",
    "VALUE": 76.3
  }
]

### Prompt If you can, please state the reported inhibition value of COc1ccc(NC(=O)Nc2ccc3c(c2)C(=O)N([C@@H](C)CO)C[C@H](C)[C@@H](CN(C)C(=O)NC2CCCCC2)O3)cc1 .
### Response -4.33

### Prompt Try CCC(=O)N1C[C@@H](C)[C@@H](OC)CN(C)C(=O)c2ccc(NC(=O)C3CCCCC3)cc2OC[C@@H]1C next.
### Response -13.2

### Prompt One more molecule: CN1CCN(C(=O)Cn2c(C(F)(F)F)nc3ccccc32)CC1
### Response 1.81

### Prompt Then this molecule: O=C(CN1CCOCC1)N1CCCCN2[C@H](C1)[C@H](c1ccc(-c3ccccc3F)cc1)[C@@H]2CO
### Response 0.84

### Prompt // same read-out, input: Cc1ccc(C(=O)OC(C)CN2CCOCC2)cc1 (stereo not given)
### Response -27.6

### Prompt Try the molecule Cc1ccc(C(=O)C(=S)N2CCOCC2)cc1
### Response 67.2

### Prompt Same question for Cc1ccccc1S(=O)(=O)N1[C@@H]2CNC[C@H]1C2c1ccc(-c2cccnc2)cc1 (stereo not given in full) please.
### Response 19.3

### Prompt Also check Cc1noc(C)c1NC(=O)N(C)C[C@H]1Oc2ccc(NC(=O)C3CCCCC3)cc2CC(=O)N([C@@H](C)CO)C[C@H]1C
### Response -10.9
